# Test system: K562 CRISPRi cells
# Experiment: Constant region variant library pooled growth screen, K562
# Assay type: cell-based, human
# Setup conditions: sgRNA constant region variants; activity relative to the original, un-modified constant region cr995
# Excerpt: We calculated relative activities for each targeting sequence:constant region pair by normalizing its phenotype to that of the targeting sequence paired with the unmodified constant region, identifying 409 constant region variants that on average conferred intermediate activity (0.1-0.9, FIG. 5B). Ten variants selected for individual evaluation also mediated intermediate levels of mRNA knockdown (FIG. 6B). […]
Reported metric: Mean relative activity
Lab note: record just the number, no unit beside it.

Solved entries:
cr702 (nucleic acid, listed as DNA, chemistry not fully specified) guide: GTTTAAGAGCTAAGCTGGAAACAGCATAGCAAGTTTAAATAAGGCTAGTCCGTTATCAACTTGAAAAAGTGCCACCGAGTCGGTGCT : 0.8977
cr746 (nucleic acid, listed as DNA, chemistry not fully specified) guide: GTTTAAGAGCTAAGCTGGAAACAGCATAGCAAATTTAAATAAGGCTAGTCCGTTATCAACTTGACAAAGTGGCACCGAGTCGGTGCT : 0.629
cr563 (nucleic acid, listed as DNA, chemistry not fully specified) guide: GTTTAAGAGCTAAGCTGGAAACAGCATAGCAAGTTTAAATAAGGCTAGTCCGTTATCAAGCTGAAAAGCTGGCACCGAGTCGGTGCT : 1.068

Specify measured Mean relative activity for cr070 (nucleic acid, listed as DNA, chemistry not fully specified) guide: GTTTAACGGCTAAGCTGGAAACAGCATAGCAAGTTTAAATAAGGCTAGTCCGTTATCAACTTGAAAAAGTGGCACCGAGTCGGTGCT .
1.03

Specify measured Mean relative activity for cr532 (nucleic acid, listed as DNA, chemistry not fully specified) guide: GTTTAAGAGCTAAGCTGGAAACAGCATAGCAAGTTTAAATAAGGCTAGTCCGTTATCAACGTGAAAACGTGACTCCGAGTCGGAGTT .
1.093

Specify measured Mean relative activity for cr439 (nucleic acid, listed as DNA, chemistry not fully specified) guide: GTTTAAGAGCTAAGCAGGAAACAGCATAGCAAGTTTAAATAAGGCTAGTCCGTTATCAACTTGAAAAAGTGGCACCGAGTCGGTGCT .
0.7506

Specify measured Mean relative activity for cr935 (nucleic acid, listed as DNA, chemistry not fully specified) guide: GTTTAAGAGCTAAGCTGGAAACAGCATAGCAAGTTTAAATGAGGCTAGTCCGTTATCAACTTGACAAAGTGGCACCGAGTCGGTGCT .
0.02413
